# assay-remarks: NCI Yeast Anticancer Drug Screen. Data for the mlh1 rad18 strain (AID 175)
# conditions-used: S. cerevisiae mlh1 rad18 strain growth inhibition; at 50.0 µM; active compounds read high
About 79,000 compounds went through this panel and 15% of them were active in at least one assay; those are over-represented in the sample as a whole.
# maps each entry to its growth inhibition
Number in %, nothing else.

Entry OCC(Cl)(Cl)C(Cl)(Cl)CO needs its growth inhibition filled in; supply it.
-17.8

---
Entry CN(C)CC1CCC(=C2CCCC2)C1=O (stereo not given) needs its growth inhibition filled in; supply it.
20.6

Entry CCCSc1nc2c(c(=O)n(C)c(=O)n2C)n1C needs its growth inhibition filled in; supply it.
6.5

Entry COC1(OC)C[C@H](C)[C@@]23O[C@]24c2cc(O)c5c(c2N[C@H]3C#C/C=C\C#C[C@]14O)C(=O)c1ccccc1C5=O needs its growth inhibition filled in; supply it.
90.8

Entry Nc1nnc(N)c2nc(-c3ccccc3)c(-c3ccccc3)nc12 needs its growth inhibition filled in; supply it.
20.9

---

# assay-remarks: NCI Yeast Anticancer Drug Screen. Data for the sgs1 mgt1 strain (AID 161);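 also: 0% = growth of cultures given vehicle only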
# conditions-used: S. cerevisiae sgs1 mgt1 strain, at 50.0 µM, active compounds read high
This is part of a sample that, as a whole, favours compounds with a hit. Of some 79,000 tested, about 15% had one in any assay.
# maps each entry to its growth inhibition
Number in %, nothing else.

The cases that follow already have their growth inhibition on record.
Entry CCOc1nc(C(=O)O)cc2ccsc12 needs its growth inhibition filled in; supply it.
5.5

Entry Cc1ccc(CNC(=S)NC2CCCCC2)cc1C needs its growth inhibition filled in; supply it.
94.2

Entry Nc1nc(Cc2ccccc2)c(CCCNc2ccccc2)c(=O)[nH]1 needs its growth inhibition filled in; supply it.
6.45

Entry CO[C@@H]1C2C3c4ccccc4C(c4ccccc43)C2[C@H](OC)[C@H]2OC(c3ccccc3)O[C@H]21 (stereo not given in full) needs its growth inhibition filled in; supply it.
7.15

Entry Cc1cc(C(=O)/C=C(\C(=O)c2ccccc2)c2ccccc2)ccc1Cl needs its growth inhibition filled in; supply it.
6.65

Entry CCCC(C(=O)O)C(O)(CC(=O)O)C(=O)O (stereo not given) needs its growth inhibition filled in; supply it.
11.4

Entry CN(C)c1ccc(/C=C/c2ccccc2)cc1 needs its growth inhibition filled in; supply it.
-8.95

Entry COc1ccc(NC(=O)c2cc3cc(N=Nc4ccc(Br)cc4)ccc3oc2=O)cc1 needs its growth inhibition filled in; supply it.
-15.2

---
Entry CCOc1cc(C(=O)O)cc(OCC)n1 needs its growth inhibition filled in; supply it.
9.2

Entry CC(O)CN1CCN(CCN(CC(C)O)CC(C)O)CC1 (stereo not given) needs its growth inhibition filled in; supply it.
-3.7

Entry CCC[CH2][Sn]([CH2]CCC)([O]C(=O)c1cccc(F)c1F)[O][Sn]([CH2]CCC)([CH2]CCC)[O]C(=O)c1cccc(F)c1F needs its growth inhibition filled in; supply it.
91.2

---

# maps each entry to its growth inhibition
# assay-remarks: NCI Yeast Anticancer Drug Screen. Data for the bub3 strain (AID 167)
# conditions-used: S. cerevisiae bub3 mutant strain, at 50.0 µM, active compounds read high
Compounds without any hit were thinned out: in the full panel of roughly 79,000, 15% have a hit.
Number in %, nothing else.

Entry Cn1ncc2c(=O)[nH]c(NCCO)nc21 needs its growth inhibition filled in; supply it.
8.7

Entry O=c1c(=[n+]2ccc(=C([O-])c3ccccc3)cc2)/c(=N/S(=O)(=O)c2ccccc2)c(=O)c2ccccc12 needs its growth inhibition filled in; supply it.
12.8

Entry CCN(CC)CCC(=O)c1ccc(OC)cc1 needs its growth inhibition filled in; supply it.
7.55

Entry [O-]C(=N/C(=N/[n+]1ccccc1)c1ccccc1)c1ccccc1 needs its growth inhibition filled in; supply it.
-4.05

Entry COC(=O)CCC(=O)NC1=C(NCc2ccccc2)C(=O)c2ccccc2C1=O needs its growth inhibition filled in; supply it.
38.9

Entry CC1C(c2ccccc2)=CCON1c1ccccc1 (stereo not given) needs its growth inhibition filled in; supply it.
-3.75

Entry O=C(CCc1ccc(O)c(O)c1)NCCc1cc(OCc2ccccc2)cc(OCc2ccccc2)c1 needs its growth inhibition filled in; supply it.
82.2

Entry CC1=NS(=O)(=O)c2ccccc2N1 needs its growth inhibition filled in; supply it.
4.45

Entry CC1=CCCC(C)(C)C1/C=C/C(C)=N/NC(=O)Nc1ccccc1 (stereo not given) needs its growth inhibition filled in; supply it.
8.85

Entry CCCCCCCCCC(=O)N/N=C\c1cccc2ccccc12 needs its growth inhibition filled in; supply it.
24.6

Entry O=[N+]([O-])c1ccc(C=NCCO)cc1 needs its growth inhibition filled in; supply it.
9.2

Entry CCCCCCCCCCC1OCC(CC)([N+](=O)[O-])CO1 (stereo not given) needs its growth inhibition filled in; supply it.
9.25

Entry Cc1cc(CSCCc2nc3ccccc3[nH]2)c(O)c(CSCCc2nc3ccccc3[nH]2)c1 needs its growth inhibition filled in; supply it.
-6.65

Entry CC(=O)OCC(NC(=O)C(N)CC(=O)O)C(=O)NCC(=O)Oc1ccc([N+](=O)[O-])cc1 (stereo not given) needs its growth inhibition filled in; supply it.
1.9

Entry Cn1c(=O)c2c(ncn2CN2CCN(Cn3cnc4c3c(=O)n(C)c(=O)n4C)CC2)n(C)c1=O needs its growth inhibition filled in; supply it.
-63.9

Entry C=C1C(=O)[C@@]23CC[C@@H]4[C@@]5(C)CCC[C@@]4(OC5=O)C2(C)CC[C@]1(OC)C3 (stereo not given in full) needs its growth inhibition filled in; supply it.
88.4

Entry c1ccc(Oc2nnc3c4ccccc4ccn23)cc1 needs its growth inhibition filled in; supply it.
3.9

---

# assay-remarks: NCI Yeast Anticancer Drug Screen. Data for the sgs1 mgt1 strain (AID 161);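 also: 0% = growth of cultures given vehicle only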
# conditions-used: S. cerevisiae sgs1 mgt1 strain, at 50.0 µM, active compounds read high
About 79,000 compounds went through this panel and 15% of them were active in at least one assay; those are over-represented in the sample as a whole.
assay-metric: growth inhibition (%)
Number in %, nothing else.

The cases that follow already have their growth inhibition on record.
Entry CC(=O)NC1C(OCc2ccccc2)OC(CO)C(O)C1OC(C)C(=O)NC(C)C(=O)N[C@@H](CCC(=O)OCCCNC1c2ccccc2Nc2cccc([N+](=O)[O-])c21)C(N)=O (some centres not stated) needs its growth inhibition filled in; supply it.
78.2

Entry Nc1nc2ccc(Br)cc2s1 needs its growth inhibition filled in; supply it.
35.9

Entry CC(=O)OC1Cc2ccccc2C1OC(C)=O (configuration not stated) needs its growth inhibition filled in; supply it.
-8.8

Entry O=P(c1ccccc1)(c1ccccc1)c1ccccc1OCCCO needs its growth inhibition filled in; supply it.
4.35

Entry O=c1nc2n(cc1F)C1OC(CCl)C(O)C1O2 (configuration not stated) needs its growth inhibition filled in; supply it.
15.7

Entry CN(C)c1cccc([N+](=O)[O-])c1 needs its growth inhibition filled in; supply it.
-44.6

# input for lookup
Entry O/N=C1\CC2(N3CCOCC3)CCC1(Cc1ccccc1)CC2 needs its growth inhibition filled in; supply it.
60.2

---

# maps each entry to its growth inhibition
# assay-remarks: NCI Yeast Anticancer Drug Screen. Data for the mlh1 rad18 strain (AID 175)
# conditions-used: S. cerevisiae mlh1 rad18 strain growth inhibition; at 50.0 µM; active compounds read high
This is part of a sample that, as a whole, favours compounds with a hit. Of some 79,000 tested, about 15% had one in any assay.
Number in %, nothing else.

Entry CC(=NCCN=C(C)c1ccccc1O)c1ccccc1O.[Cu] needs its growth inhibition filled in; supply it.
-8.55

Entry COCc1cc(CC(C)=O)nc(C/C=N/NC(N)=O)n1 needs its growth inhibition filled in; supply it.
-11.7

Entry Fc1ccc(N2C(c3ccccc3)=N[C@@H](N3CCOCC3)[C@@H]2N2CCOCC2)cc1 needs its growth inhibition filled in; supply it.
20

---
Entry N#CC1C(C#N)C2CCC1C1N=NN(c3ccccc3)C21 (stereo unspecified) needs its growth inhibition filled in; supply it.
-28.6

Entry Clc1ccc2ccccc2n1 needs its growth inhibition filled in; supply it.
-8.15

Entry CCCC(C)(C)CO needs its growth inhibition filled in; supply it.
5.75

Entry Cc1cc(C)c(CSc2cc(N)nc(N)c2N)c(C)c1 needs its growth inhibition filled in; supply it.
48.2

---

# assay-remarks: NCI Yeast Anticancer Drug Screen. Data for the sgs1 mgt1 strain (AID 161);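 also: 0% = growth of cultures given vehicle only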
# conditions-used: S. cerevisiae sgs1 mgt1 strain, at 50.0 µM, active compounds read high
# Protocol: Growth inhibition of yeast strains with defined genetic alterations is measured as a screen for potential anti-cancer activity. Selected strains with alterations in DNA damage repair or cell cycle control were exposed to compounds and growth inhibition was measured relative to vehicle treated controls. The strain used in this assay is sgs1 mgt1
Compounds without any hit were thinned out: in the full panel of roughly 79,000, 15% have a hit.
assay-metric: growth inhibition (%)
Number in %, nothing else.

The cases that follow already have their growth inhibition on record.
Entry Cc1cccc(C)c1NC(=O)C(=O)CC(=O)c1cccc([N+](=O)[O-])c1 needs its growth inhibition filled in; supply it.
2.2

Entry NC(=O)CCN(CCC(N)=O)c1ccc2c(c1)C(=O)c1ccccc1-2 needs its growth inhibition filled in; supply it.
-8

Entry O=c1c2c(-c3cc(-c4ccccc4)nc4[nH]n(-c5ccccc5)c(=O)c34)cc(-c3ccccc3)nc2[nH]n1-c1ccccc1 needs its growth inhibition filled in; supply it.
0.35

Entry O=C1c2ccccc2S[C@@H](O)[C@@H]2CCCN12 needs its growth inhibition filled in; supply it.
-64.7

Entry Cc1nc(Nc2ccccc2)sc1C(=O)CC(=O)C(=O)NC12CC3CC(CC(C3)C1)C2 needs its growth inhibition filled in; supply it.
8.8

# input for lookup
Entry CCOc1cccc(OCC)c1C needs its growth inhibition filled in; supply it.
-2.55
